FYI, the data here is from patent US10428140B2.

Biological target: T1, human EphA1 (Homo sapiens, UniProt P21709)
T1 construct: a protein of the extracellular region of each human Eph receptor fused with the SEAP protein and the His tag; made in house; host or cells: Expi293F cells (culture supernatant)
T1 sequence (P21709 26-547 limits assumed): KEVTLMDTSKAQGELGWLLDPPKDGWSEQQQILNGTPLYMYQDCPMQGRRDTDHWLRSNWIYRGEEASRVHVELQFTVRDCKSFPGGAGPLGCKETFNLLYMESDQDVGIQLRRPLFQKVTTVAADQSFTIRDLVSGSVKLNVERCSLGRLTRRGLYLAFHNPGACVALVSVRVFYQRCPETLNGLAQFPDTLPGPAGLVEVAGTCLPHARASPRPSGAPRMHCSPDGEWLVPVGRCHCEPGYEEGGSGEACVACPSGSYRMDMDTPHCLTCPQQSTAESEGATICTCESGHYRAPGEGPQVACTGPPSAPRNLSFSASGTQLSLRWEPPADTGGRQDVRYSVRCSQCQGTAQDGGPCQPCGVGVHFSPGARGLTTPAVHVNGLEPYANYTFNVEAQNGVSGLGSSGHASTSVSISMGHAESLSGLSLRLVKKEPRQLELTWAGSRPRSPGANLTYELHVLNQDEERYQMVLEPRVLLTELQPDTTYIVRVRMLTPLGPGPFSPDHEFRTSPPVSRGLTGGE
Assay: Selectivity ELISA of humanized antibodies for human Eph receptor
Assay type: binding
Conditions: coated protein 1 nM
Consider the following molecules and their measured hEphA1-SEAP-: absorbance at 450 nm, percentage with respect to hEphA4-SEAP-His as 100% readings.
Please answer in the form of a number followed by its unit of measurement.

[[record]]
molecule = "160 (antibody, V domains shown, synthetic humanized antibody heavy chain variable region sequence; synthetic humanized antibody light chain variable region sequence) VH: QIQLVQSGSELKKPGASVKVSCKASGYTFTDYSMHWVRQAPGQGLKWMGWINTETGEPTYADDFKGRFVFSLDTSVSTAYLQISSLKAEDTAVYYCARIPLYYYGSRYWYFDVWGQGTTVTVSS VL: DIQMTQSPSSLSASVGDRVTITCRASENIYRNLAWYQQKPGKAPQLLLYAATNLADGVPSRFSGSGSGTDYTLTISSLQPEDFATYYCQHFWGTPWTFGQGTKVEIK"
meas_value = "6.5%"


Next up:
[Q] What does the record list as hEphA1-SEAP-: absorbance at 450 nm, percentage with respect to hEphA4-SEAP-His as 100% for 91 (antibody, V domains shown, constant regions without entry; synthetic humanized antibody light chain variable region sequence; synthetic humanized antibody heavy chain variable region sequence) VL: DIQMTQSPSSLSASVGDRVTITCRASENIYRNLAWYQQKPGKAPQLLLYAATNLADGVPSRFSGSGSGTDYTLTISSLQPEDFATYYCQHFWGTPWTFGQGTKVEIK VH: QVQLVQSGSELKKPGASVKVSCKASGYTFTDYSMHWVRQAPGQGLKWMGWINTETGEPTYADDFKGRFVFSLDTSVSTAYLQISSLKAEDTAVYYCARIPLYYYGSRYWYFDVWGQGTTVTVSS ?
[A] 5.8%
